System: CAMK1;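 further: KINOMEscan kinase panel screen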
CONDITIONS USED: concentration: 1 μM, replicates: in singlicate; n = 1
Catalogue of %Inh values
Report field: quantity (unit follows the number).

Use these answered entries as a reference point.
[
  {
    "COMPOUND": "Cc1c(O)cccc1Nc1ccnc2ccc(C(F)(F)F)cc12.Cl [GW466413]",
    "%Inh": "1%"
  },
  {
    "COMPOUND": "O=C(Nc1ccc2c(c1)OCO2)NC1CCN(c2ccnc(Nc3ccc(F)cc3)n2)C1 (centres unmarked) [GSK1379724]",
    "%Inh": "35%"
  },
  {
    "COMPOUND": "Fc1cc(Cl)ccc1Nc1ccnc2cc(I)ccc12 [GW551191]",
    "%Inh": "0%"
  },
  {
    "COMPOUND": "COc1ccc(C2=C(Nc3cccc(C(=O)O)c3)C(=O)NC2=O)cc1 [SB-390765]",
    "%Inh": "23%"
  },
  {
    "COMPOUND": "Clc1cc(Cl)cc(Nc2ccnc(Nc3cc(Cl)cc(Cl)c3)n2)c1 [GSK175726]",
    "%Inh": "7%"
  }
]

Fill in %Inh for record CC(C)(C)c1ccc(C(=O)Nc2cn3cc(Cl)ccc3n2)cc1 0%

Please report the measured %Inh for COc1cccc(NC(=O)NC2CCN(c3ccnc(Nc4ccc(F)cc4)n3)C2)c1 (centres unmarked) [GSK1379721] 10%

Please supply the value of reported %Inh for the item Cc1cccc(-c2nc(Nc3cccc(C(N)=O)c3)c3ccccc3n2)n1 [GW876019] 0%

Give the reported value of %Inh for this record: Cc1ccc(-c2cc(-c3c[nH]nc3-c3ccccn3)ccn2)cc1 [GW684088] 9%

Query %Inh for Cc1cc(-c2ccc3c(c2)CC[C@@H](N[C@@H](C)c2ccccc2)C3)cnc1N.Cl [GW412617] 23%

Input CCCc1ccc(S(=O)(=O)NC2CCN(c3ccnc(Nc4ccc(F)cc4)n3)C2)cc1 (centres unmarked) [GSK1379715] , output reported %Inh. 0%

Could you please provide reported %Inh for CCn1c(-c2cccnc2O)nc2cnccc21 [SB-736715] ? Thanks! 0%

Please report %Inh for the following compound: Cl.O=C(Nc1cccc(-c2nn3ncccc3c2-c2ccnc(Nc3cccnc3)n2)c1)c1c(F)cccc1F [GSK312879] 8%

Input COc1ccccc1CNC(=O)c1cc(C(=O)c2ccccc2C)c[nH]1 [GSK364507] , output reported %Inh. 9%

Note %Inh for the compound shown: CC(C)(C)c1ccc(C(=O)Nc2cn3cc(-c4cccnc4)ccc3n2)cc1 4%
